These measurements were taken from the RNAGym collection of RNA variant scans (doi:10.7554/elife.90254).

B1: LINE1-full (parent)
chain: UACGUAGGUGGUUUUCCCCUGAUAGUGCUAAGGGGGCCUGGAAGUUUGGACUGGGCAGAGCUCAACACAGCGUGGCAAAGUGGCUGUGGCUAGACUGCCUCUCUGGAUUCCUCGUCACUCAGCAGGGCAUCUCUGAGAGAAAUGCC

- Variants of: B1
- assayDetails: self-cleavage, relative activity (ratio to wild type); higher = more cleavage; in vitro, sequencing; the parent is a self-cleaving ribozyme
Label FALSE if self-cleavage falls below 0.9; label TRUE in every other case.

variantNotation	labelValue
C17U U143G	TRUE
U52A U73C	TRUE
U9C A107U	TRUE
C123U	TRUE
U46C U47A	TRUE
U26A U143C	FALSE
A6G C18U	FALSE
U13C A31U	TRUE
A107U U109A	TRUE
A24G U73A	TRUE

Please check the record U9G A141G and state if its self-cleavage is at or above 0.9.
TRUE

Now this one: C116U A141G
TRUE

Now this one: A77U A124G
FALSE
